The values you see were collected from the supplement of paper PMC10627819.

Test system: B. subtilis 168
methodDescription: Bliss interaction score (quartile over a dose matrix) (fitness difference); higher = more antagonism (negative = synergy)
Overview of reported Bliss interaction score across a group of compounds:
Reply with just the number.

compound	Bliss interaction score
C[C@H]1COc2c(N3CCN(C)CC3)c(F)cc3c(=O)c(C(=O)O)cn1c23 [Levofloxacin] + O=C1CN(/N=C/c2ccc([N+](=O)[O-])o2)C(=O)N1 [Nitrofurantoin]	0.0577
CC1(C)S[C@@H]2[C@H](NC(=O)[C@H](N)c3ccc(O)cc3)C(=O)N2[C@H]1C(=O)O [Amoxicillin] + C[C@H]1c2cccc(O)c2C(=O)C2=C(O)[C@]3(O)C(=O)C(C(N)=O)=C(O)[C@@H](N(C)C)[C@@H]3[C@@H](O)[C@@H]21 [Doxycycline]	0.136
CN(C)C(=O)C(CCN1CCC(O)(c2ccc(Cl)cc2)CC1)(c1ccccc1)c1ccccc1 [Loperamide] + CN(N=O)C(=O)N[C@@H](C=O)[C@@H](O)[C@H](O)[C@H](O)CO [Streptozotocin]	-0.0219
CCCCCCCCCC(=O)N[C@@H](Cc1c[nH]c2ccccc12)C(=O)N[C@H](CC(N)=O)C(=O)N[C@@H](CC(=O)O)C(=O)N[C@@H]1C(=O)NCC(=O)N[C@@H](CCCN)C(=O)N[C@@H](CC(=O)O)C(=O)N[C@H](C)C(=O)N[C@@H](CC(=O)O)C(=O)NCC(=O)N[C@H](CO)C(=O)N[C@@H]([C@H](C)CC(=O)O)C(=O)N[C@@H](CC(=O)c2ccccc2N)C(=O)O[C@@H]1C [Daptomycin] + COc1c(N2C[C@@H]3CCCN[C@@H]3C2)c(F)cc2c(=O)c(C(=O)O)cn(C3CC3)c12 [Moxifloxacin]	-0.0294
CCCCCCCCCC(=O)N[C@@H](Cc1c[nH]c2ccccc12)C(=O)N[C@H](CC(N)=O)C(=O)N[C@@H](CC(=O)O)C(=O)N[C@@H]1C(=O)NCC(=O)N[C@@H](CCCN)C(=O)N[C@@H](CC(=O)O)C(=O)N[C@H](C)C(=O)N[C@@H](CC(=O)O)C(=O)NCC(=O)N[C@H](CO)C(=O)N[C@@H]([C@H](C)CC(=O)O)C(=O)N[C@@H](CC(=O)c2ccccc2N)C(=O)O[C@@H]1C [Daptomycin] + Cn1nnc(-c2ccc(-c3ccc(N4C[C@H](CO)OC4=O)cc3F)cn2)n1 [Tedizolid]	0.0472

Bliss interaction score lookup needed for CC1(C)S[C@@H]2[C@H](NC(=O)[C@H](N)c3ccc(O)cc3)C(=O)N2[C@H]1C(=O)O [Amoxicillin] + CCC[C@@H]1C[C@@H](C(=O)N[C@@H]([C@H]2O[C@H](SC)[C@H](O)[C@@H](O)[C@H]2O)[C@@H](C)O)N(C)C1 [Lincomycin] , thanks.
-0.0381

What about this compound? CO/N=C(\C(=O)N[C@@H]1C(=O)N2C(C(=O)[O-])=C(C[N+]3(C)CCCC3)CS[C@H]12)c1csc(N)n1 [Cefepime] + CO[C@H]1/C=C/O[C@@]2(C)Oc3c(C)c(O)c4c(O)c(c(/C=N/N5CCN(C)CC5)c(O)c4c3C2=O)NC(=O)/C(C)=C\C=C\[C@H](C)[C@H](O)[C@@H](C)[C@@H](O)[C@@H](C)[C@H](OC(C)=O)[C@@H]1C [Rifampicin]
0.118

----------
Test system: S. pneumoniae D39V
methodDescription: Bliss interaction score (quartile over a dose matrix) (fitness difference); higher = more antagonism (negative = synergy)
testReadout: Bliss interaction score
Reply with just the number.

compound	recordedValue
C[C@H]1COc2c(N3CCN(C)CC3)c(F)cc3c(=O)c(C(=O)O)cn1c23 [Levofloxacin] + CN[C@H](CC(C)C)C(=O)N[C@H]1C(=O)N[C@@H](CC(N)=O)C(=O)N[C@H]2C(=O)N[C@H]3C(=O)N[C@H](C(=O)N[C@H](C(=O)O)c4cc(O)cc(O)c4-c4cc3ccc4O)[C@H](O)c3ccc(c(Cl)c3)Oc3cc2cc(c3O[C@@H]2O[C@H](CO)[C@@H](O)[C@H](O)[C@H]2O[C@H]2C[C@](C)(N)[C@H](O)[C@H](C)O2)Oc2ccc(cc2Cl)[C@H]1O [Vancomycin]	-0.1

Note: attention shifts to another entry.
Bliss interaction score lookup needed for CCCCCCCCCC(=O)N[C@@H](Cc1c[nH]c2ccccc12)C(=O)N[C@H](CC(N)=O)C(=O)N[C@@H](CC(=O)O)C(=O)N[C@@H]1C(=O)NCC(=O)N[C@@H](CCCN)C(=O)N[C@@H](CC(=O)O)C(=O)N[C@H](C)C(=O)N[C@@H](CC(=O)O)C(=O)NCC(=O)N[C@H](CO)C(=O)N[C@@H]([C@H](C)CC(=O)O)C(=O)N[C@@H](CC(=O)c2ccccc2N)C(=O)O[C@@H]1C [Daptomycin] + COc1ccc(C[C@H](N)C(=O)N[C@H]2[C@@H](O)[C@H](n3cnc4c(N(C)C)ncnc43)O[C@@H]2CO)cc1 [Puromycin] , thanks.
-0.0975

----------
Test system: S. aureus Newman;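 also: OD595 on entry to stationary phase over no-drug wells; at most 1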
methodDescription: fitness (endpoint OD595 vs no drug) (fraction); higher = more growth
studyConditions: first compound 0.25 µg/mL; partner 0.078 µg/mL
testReadout: fitness
Reply with just the number.

compound	fitness
CO/N=C(\C(=O)N[C@@H]1C(=O)N2C(C(=O)[O-])=C(C[N+]3(C)CCCC3)CS[C@H]12)c1csc(N)n1 [Cefepime] + CC1(C)S[C@@H]2[C@H](NC(=O)Cc3ccccc3)C(=O)N2[C@H]1C(=O)O [Penicillin G]	0.773

Note: attention shifts to another entry.
fitness lookup needed for CO/N=C(\C(=O)N[C@@H]1C(=O)N2C(C(=O)[O-])=C(C[N+]3(C)CCCC3)CS[C@H]12)c1csc(N)n1 [Cefepime] + CN(C)c1cc(NC(=O)CNC(C)(C)C)c(O)c2c1C[C@H]1C[C@H]3[C@H](N(C)C)C(O)=C(C(N)=O)C(=O)[C@@]3(O)C(O)=C1C2=O [Tigecycline] , thanks.
0.838

----------
Tested on: S. pneumoniae D39V
methodDescription: Bliss interaction score (quartile over a dose matrix) (fitness difference); higher = more antagonism (negative = synergy)
We use 0.1 as the dividing line for Bliss interaction score: on or above the line is Criterion met, below is Criterion not met.

molecule	assignedCategory
CO/N=C(\C(=O)N[C@@H]1C(=O)N2C(C(=O)[O-])=C(C[N+]3(C)CCCC3)CS[C@H]12)c1csc(N)n1 [Cefepime] + C[C@H]1c2cccc(O)c2C(=O)C2=C(O)[C@]3(O)C(=O)C(C(N)=O)=C(O)[C@@H](N(C)C)[C@@H]3[C@@H](O)[C@@H]21 [Doxycycline]	Criterion met
CC1(C)S[C@@H]2[C@H](NC(=O)[C@H](N)c3ccc(O)cc3)C(=O)N2[C@H]1C(=O)O [Amoxicillin] + CN[C@@H]1[C@H](O[C@H]2[C@H](O[C@H]3[C@H](O)[C@@H](O)[C@H](N=C(N)N)[C@@H](O)[C@@H]3N=C(N)N)O[C@@H](C)[C@]2(O)C=O)O[C@@H](CO)[C@H](O)[C@H]1O [Streptomycin]	Criterion not met
CCCCCCCCCC(=O)N[C@@H](Cc1c[nH]c2ccccc12)C(=O)N[C@H](CC(N)=O)C(=O)N[C@@H](CC(=O)O)C(=O)N[C@@H]1C(=O)NCC(=O)N[C@@H](CCCN)C(=O)N[C@@H](CC(=O)O)C(=O)N[C@H](C)C(=O)N[C@@H](CC(=O)O)C(=O)NCC(=O)N[C@H](CO)C(=O)N[C@@H]([C@H](C)CC(=O)O)C(=O)N[C@@H](CC(=O)c2ccccc2N)C(=O)O[C@@H]1C [Daptomycin] + C/C(=C\C(=O)OCCCCCCCCC(=O)O)C[C@@H]1OC[C@H](C[C@@H]2O[C@H]2[C@@H](C)[C@H](C)O)[C@@H](O)[C@H]1O [Pseudomonic acid]	Criterion not met
CC1(C)S[C@@H]2[C@H](NC(=O)[C@H](N)c3ccc(O)cc3)C(=O)N2[C@H]1C(=O)O [Amoxicillin] + C[C@H]1COc2c(N3CCN(C)CC3)c(F)cc3c(=O)c(C(=O)O)cn1c23 [Levofloxacin]	Criterion met
C[C@H]1COc2c(N3CCN(C)CC3)c(F)cc3c(=O)c(C(=O)O)cn1c23 [Levofloxacin] + COc1c(N2C[C@@H]3CCCN[C@@H]3C2)c(F)cc2c(=O)c(C(=O)O)cn(C3CC3)c12 [Moxifloxacin]	Criterion not met
C[C@H]1COc2c(N3CCN(C)CC3)c(F)cc3c(=O)c(C(=O)O)cn1c23 [Levofloxacin] + CCC[C@@H]1C[C@@H](C(=O)N[C@@H]([C@H]2O[C@H](SC)[C@H](O)[C@@H](O)[C@H]2O)[C@@H](C)O)N(C)C1 [Lincomycin]	Criterion met
CC1(C)S[C@@H]2[C@H](NC(=O)[C@H](N)c3ccc(O)cc3)C(=O)N2[C@H]1C(=O)O [Amoxicillin] + Cn1nnc(-c2ccc(-c3ccc(N4C[C@H](CO)OC4=O)cc3F)cn2)n1 [Tedizolid]	Criterion met

Form field: Bliss interaction score at least 0.1? Entry: CC1(C)S[C@@H]2[C@H](NC(=O)[C@H](N)c3ccc(O)cc3)C(=O)N2[C@H]1C(=O)O [Amoxicillin] + COc1cccc2c1C(=O)c1c(O)c3c(c(O)c1C2=O)C[C@@](O)(C(=O)CO)C[C@@H]3O[C@H]1C[C@H](N)[C@H](O)[C@H](C)O1 [Doxorubicin]
Criterion not met
